The reported numbers originate from paper PMC11012289.

- experimental system: IRAP (Homo sapiens, UniProt Q9UIQ6)
- Construct: The screen was performed with the soluble truncated IRAP enzyme; made in house
- Sequence (Q9UIQ6 155-1025 limits assumed): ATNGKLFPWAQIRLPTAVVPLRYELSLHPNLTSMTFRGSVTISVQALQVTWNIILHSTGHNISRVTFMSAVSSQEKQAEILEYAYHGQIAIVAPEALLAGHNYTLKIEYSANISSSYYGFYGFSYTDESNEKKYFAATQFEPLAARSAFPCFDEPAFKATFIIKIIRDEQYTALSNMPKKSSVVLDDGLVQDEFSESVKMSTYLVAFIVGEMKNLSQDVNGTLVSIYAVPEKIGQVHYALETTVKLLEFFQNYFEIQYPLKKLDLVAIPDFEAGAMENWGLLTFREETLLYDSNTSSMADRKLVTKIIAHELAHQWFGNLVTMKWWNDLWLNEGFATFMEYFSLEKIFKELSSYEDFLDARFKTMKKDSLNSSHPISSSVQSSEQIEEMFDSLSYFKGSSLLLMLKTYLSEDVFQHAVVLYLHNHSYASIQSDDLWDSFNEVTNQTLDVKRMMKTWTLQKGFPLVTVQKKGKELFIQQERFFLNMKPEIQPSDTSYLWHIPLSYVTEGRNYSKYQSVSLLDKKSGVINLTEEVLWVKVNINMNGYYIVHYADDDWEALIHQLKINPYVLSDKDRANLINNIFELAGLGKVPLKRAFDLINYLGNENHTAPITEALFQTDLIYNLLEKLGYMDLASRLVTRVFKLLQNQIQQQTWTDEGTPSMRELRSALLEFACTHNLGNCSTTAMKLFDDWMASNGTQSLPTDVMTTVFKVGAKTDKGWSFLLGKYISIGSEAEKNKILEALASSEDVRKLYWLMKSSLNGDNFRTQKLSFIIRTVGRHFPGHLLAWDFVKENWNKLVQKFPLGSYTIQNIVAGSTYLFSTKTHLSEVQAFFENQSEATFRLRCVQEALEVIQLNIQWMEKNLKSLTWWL
- assay info: Deselection fluorescence IRAP assay with 10 µM zinc
- Assay type: biochemical
- run parameters: 10 µM ZnSO4 in assay buffer; read-out: Fluorescence + Zn pIC50 (converted)
Binary call on IC50 with cut-off 3 µM: strictly below means Fulfilled, and equality or higher means Not fulfilled.

The examples below pair each entry with its known result.
molecule	answer label
Fc1ccc(F)c(Cn2ccc3ncc(N4CCNCC4)cc32)c1Cl [QHL7]	Fulfilled
CC(C)[C@@H](CS(=O)(=O)N(C)Cc1sc2ccccc2c1Cl)C(=O)NO [QHL20]	Not fulfilled
CCCNc1nc(N(C)C)nc2cc(OC)c(OC)cc12 [QHL32]	Not fulfilled
O=c1cc(N2CCCC2)nc2n(Cc3cc(Cl)ccc3Cl)ccn12 [QHL15]	Fulfilled
CC(C)CC(C(=O)NO)S(=O)(=O)N1CCN(c2ccc(F)cc2)CC1 (stereo not drawn) [QHL24]	Not fulfilled

-- ask Please let me know if CC(C)n1cc(C(=O)N2CCc3n[nH]c(-c4cccc(F)c4)c3CC2)cn1 [QHL25] shows IC50 below 3 µM.
-- reply Not fulfilled

-- ask Report whether reported IC50 is lower than 3 µM (strictly) for CC(C)[C@@H](CS(=O)(=O)N(C)CC1CCc2ccccc2C1)C(=O)NO (stereo partly drawn) [QHL16]
-- reply Fulfilled

-- ask Is it true that IC50 reported for O=C(NO)C1(CS(=O)(=O)N2CCC(c3ccc(F)cc3Cl)C2)CCC1 (stereo not drawn) [QHL5] is less than 3 µM?
-- reply Fulfilled

----------
- experimental system: IRAP (Homo sapiens, UniProt Q9UIQ6)
- Construct: The screen was performed with the soluble truncated IRAP enzyme; made in house
- assay info: Primary fluorescence IRAP assay (L-Leucine-7-amido-4-methylcoumarin cleavage)
- Assay type: biochemical
- run parameters: 4 µl end volume, 60 min; read-out: EC50 (best-fit)
- Excerpt: The primary biochemical assay was developed to measure the enzymatic activity of IRAP. To ensure biochemically sound, optimal, robust, and affordable assay conditions for large-scale screening, several factors need to be considered. […] For both primary fluorescence and orthogonal absorbance assays, non-binding 1536-well assay plates were used, and 0.05% BSA was included in the assay buffer to minimize the issues associated with protein sticking to plastics. […]
reported endpoint: EC50 (µM)
State just the number; it will be interpreted in µM.

Here O=S(=O)(Nc1cccc(-c2nnn[nH]2)c1)c1cc(Cl)c(Cl)cc1Cl [I, reference compound] was tested on IRAP (Homo sapiens, UniProt Q9UIQ6), and its EC50 came to 28.8

----------
Recorded Fluorescence pIC50 values for a group of molecules are listed next.
- experimental system: IRAP (Homo sapiens)
- Construct: The screen was performed with the soluble truncated IRAP enzyme; made in house
- assay info: Primary fluorescence IRAP assay (L-Leucine-7-amido-4-methylcoumarin cleavage)
- Type: biochemical
- run parameters: 37.5 µM L-Leucine-7-amido-4-methylcoumarin, 60 min RT, dose-response 20 µM-27.4 nM
Response field accepts a number only; no unit should be typed.

These recorded examples may help you get a feel for the data.
molecule	experimental system	assay value
CCn1c(=O)n(CC(=O)N(C)CCc2ccc(O)c3[nH]c(=O)sc23)c2ccccc21	IRAP (Homo sapiens)	5.11
c1ccn(CCCSc2nnc3ccc(N4CCCC4)nn23)c1	IRAP (Homo sapiens)	4.74
Nc1nc2cc(C(=O)O)ccc2n1Cc1cc(F)cc(F)c1	IRAP (Homo sapiens)	5.41
O=C(N1CCCC1)C1(CNS(=O)(=O)c2cccc3ccccc23)CC12CCCCC2 (centres unmarked)	IRAP (Homo sapiens)	5.36

Now turn to the next molecule.
Briefly, Fluorescence pIC50 measured for Cc1cc2nc(N)n(Cc3ccccc3)c2cc1C : 4.75
